system: P. falciparum stage V gametocytes; parameters: BacTiter-Glo ATP luminescence viability of purified stage V gametocytes in 384-well plates, per cent inhibition versus DMSO; conditions: 48 h, 5 µM; inhibitor
Screen size: about 13,000 compounds; about 3,200 (25%) showed an effect of 50% or more. Some of the results follow.
RESULT_TYPE: % Inhibition (%)
Dear colleague, please return just the value in %, with no unit written.

// solved cases for % Inhibition follow
- COMPOUND: "O=C(NCCN1CCCC1)c1ccc(-c2ccc(-c3nc4cc(C(F)(F)F)ccc4[nH]3)s2)cc1 [TCMDC-132315]"
  % Inhibition (%): 12.27
- COMPOUND: "CCNc1cc(C(=O)N[C@@H](Cc2cccc(F)c2)[C@H](O)CNC(C)CCCC(C)C)cc(N2CCCCS2(=O)=O)c1 (some centres unmarked) [TCMDC-135307]"
  % Inhibition (%): 42.64
- COMPOUND: "O=C(NCCN1Cc2ccccc2C1=O)c1ccc(Oc2ccc(C(=O)NCCN3Cc4ccccc4C3=O)cc2)cc1 [TCMDC-125669]"
  % Inhibition (%): 22.87

Attention now shifts to the item below.
Challenge: Looking for the measured % Inhibition of CCNc1cc(C(=O)N[C@@H](Cc2ccoc2)[C@H](O)CNC(C)CCCC(C)C)cc(N2CCCCS2(=O)=O)c1 (some centres unmarked) [TCMDC-135411] , can you help?
Response given: 37.57

====

system: P. falciparum stage V gametocytes; design: BacTiter-Glo ATP luminescence viability of purified stage V gametocytes in 384-well plates, per cent inhibition versus DMSO; conditions: 48 h, 5 µM; inhibitor
Among all 13,000 compounds or so, about 3,200 (25%) showed an effect of 50% or more. The list shows a part of the results.
RESULT_TYPE: % Inhibition (%)
Dear colleague, please return just the value in %, with no unit written.

// solved cases for % Inhibition follow
- COMPOUND: "COc1cc(C(=O)Nc2nc3ccccc3[nH]2)ccc1OCC(=O)Nc1cccc(C(F)(F)F)c1"
  UNIT_DESCRIPTOR: "%"
  % Inhibition: 11.63
- COMPOUND: "Cc1ccc(N2C(N)=NC(N)=NC2(C)C)cc1Cl"
  UNIT_DESCRIPTOR: "%"
  % Inhibition: -11.46
- COMPOUND: "CCCCc1ccc(-c2nc(NC(=O)Nc3nc(-c4ccccc4)[nH]c3C(=O)OCC)c(C(=O)OCC)[nH]2)cc1"
  UNIT_DESCRIPTOR: "%"
  % Inhibition: -17.92
- COMPOUND: "NCC1CCCN1Cc1ccc(-c2ccc(-c3nc4ccc(F)cc4[nH]3)cc2)cc1 (stereo not drawn)"
  UNIT_DESCRIPTOR: "%"
  % Inhibition: 65.53
- COMPOUND: "COc1ccc2nccc([C@@H](O)CN3CCC(NC(=O)C(c4cccs4)N4CCN(c5ccc(F)cc5)CC4)CC3)c2c1 (stereo partly drawn)"
  UNIT_DESCRIPTOR: "%"
  % Inhibition: 25.13

Challenge: Looking for the measured % Inhibition of CCCCc1ccc(-c2ccc(-c3c(C)[nH]c(C)c(Br)c3=O)cn2)cc1 , can you help?
Response given: 10.67

Challenge: Looking for the measured % Inhibition of NC(=O)C1CCN(Cc2cccc(-c3cccc(-c4nc5ccc(F)cc5[nH]4)c3)c2)CC1 , can you help?
Response given: -35.6

Challenge: Looking for the measured % Inhibition of Nc1nc(N)c2c(Cc3ccccc3)cccc2n1 , can you help?
Response given: -5.935

Challenge: Looking for the measured % Inhibition of CCNc1nc(OCC(F)(F)F)nc(N(c2ccccc2)c2ccccc2)n1 , can you help?
Response given: -11.7

Challenge: Looking for the measured % Inhibition of Cn1c(NC(=O)C2CCCN(C(=O)c3ccc(O)c(-c4ccc(Cl)c(Cl)c4)c3)C2)nc2ccccc21 (stereo not drawn) , can you help?
Response given: 30.61
